Target: human cMET (human, UniProt P08581 25-932)
Sequence (P08581 25-932 limits assumed): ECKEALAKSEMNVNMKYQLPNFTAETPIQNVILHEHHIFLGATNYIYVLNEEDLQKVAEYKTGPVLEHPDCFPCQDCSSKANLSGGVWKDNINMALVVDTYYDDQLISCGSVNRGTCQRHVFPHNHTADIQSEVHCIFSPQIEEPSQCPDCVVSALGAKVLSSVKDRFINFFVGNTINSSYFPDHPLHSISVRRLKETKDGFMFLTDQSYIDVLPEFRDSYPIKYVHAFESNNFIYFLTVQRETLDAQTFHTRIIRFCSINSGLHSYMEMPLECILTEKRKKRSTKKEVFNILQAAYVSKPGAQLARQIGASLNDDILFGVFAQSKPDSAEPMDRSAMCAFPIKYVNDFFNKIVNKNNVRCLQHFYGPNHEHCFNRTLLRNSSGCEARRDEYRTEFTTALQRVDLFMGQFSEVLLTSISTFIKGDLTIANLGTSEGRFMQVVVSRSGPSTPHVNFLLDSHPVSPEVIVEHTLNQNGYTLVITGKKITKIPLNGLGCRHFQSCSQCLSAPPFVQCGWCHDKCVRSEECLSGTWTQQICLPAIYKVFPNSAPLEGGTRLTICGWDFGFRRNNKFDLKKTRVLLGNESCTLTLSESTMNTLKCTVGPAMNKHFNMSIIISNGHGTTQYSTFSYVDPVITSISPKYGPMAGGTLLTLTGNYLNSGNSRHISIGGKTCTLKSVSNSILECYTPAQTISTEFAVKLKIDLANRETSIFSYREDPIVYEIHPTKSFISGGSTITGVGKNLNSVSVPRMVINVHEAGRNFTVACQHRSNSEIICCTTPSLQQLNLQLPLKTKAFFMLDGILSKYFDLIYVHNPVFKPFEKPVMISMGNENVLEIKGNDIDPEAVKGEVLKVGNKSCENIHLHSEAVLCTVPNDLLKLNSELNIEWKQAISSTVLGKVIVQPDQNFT
Assay: phage TRF on cMET
Give TRF signal for every item shown.
Just the number.

[in] Find the recorded TRF signal belonging to KB_A12_cMET_H03 (scFv, V domains shown) VH: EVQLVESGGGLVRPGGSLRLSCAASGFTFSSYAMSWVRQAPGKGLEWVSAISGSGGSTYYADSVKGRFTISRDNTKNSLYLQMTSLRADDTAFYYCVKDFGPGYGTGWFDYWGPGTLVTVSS VL: AVNWYQQLPGKAPKLLIYAAGRCRGMTGVGRCKQDSDCLAGCVCGPNGFCGANSGVSDRFSAAKSGTSASLAINGLRSEDEADYYCAAWDDSLNGYVFGTGTKLTVLG and report it.
[out] 54200

[in] Report TRF signal for KB_A12_cMET_E12 (scFv, V domains shown) VH: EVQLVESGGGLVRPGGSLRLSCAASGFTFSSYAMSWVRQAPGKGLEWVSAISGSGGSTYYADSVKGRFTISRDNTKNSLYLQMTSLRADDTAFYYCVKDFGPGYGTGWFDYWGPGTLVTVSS VL: AVNWYQQLPGKAPKLLIYAAGRCAKRSGTGRCKQDSDCLAGCVCGPNGFCGANSGVSDRFSAAKSGTSASLAINGLRSEDEADYYCAAWDDSLNGYVFGTGTKLTVLG please.
[out] 95900
